Sourced from patent US20260184777A1

target-desc: T1, human S100A8/A9 heterodimeric antigen, His-tagged (hS100A8/A9-His) (human, UniProt P05109 1-93; P06702 1-114)
T1 sequence 1: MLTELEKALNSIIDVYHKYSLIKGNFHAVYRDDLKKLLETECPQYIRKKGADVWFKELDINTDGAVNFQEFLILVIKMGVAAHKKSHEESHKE
T1 sequence 2: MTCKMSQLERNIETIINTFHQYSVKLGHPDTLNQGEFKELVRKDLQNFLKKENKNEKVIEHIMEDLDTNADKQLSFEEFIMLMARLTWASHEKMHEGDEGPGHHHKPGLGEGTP
assay-summary: cell-based or functional assay
property-label: Relative IC50 (IC50 relative to CM-1), IL-6 release from hS100A8/A9-activated human PBMCs

binder	experimental-value
CM-117 (antibody, human IgG4 S228P, lambda, V domains shown) VH: EVQLVESGGGLVQPGGSLRLSCAASGFTFSDYAMSWVRQAPGKGLEWVSAISGSGGSTYYAASVKGRFTISRDNSKNTLYLQMNSLRAEDTAVYYCARKYRPSRVFDCWGQGTLVTVSS VL: SYELTQPPSVSVAPGQTARITCSGDALGDKYASWYQQKPGQAPVLVIYEDAKRPSGIPERFSGSNSGNTATLTISGTQAEDEADYYCQSNDADAWWVFGGGTKLTVLG	0.367 relative to CM-1
CM-98 (antibody, human IgG4 S228P, lambda, V domains shown) VH: EVQLVESGGGLVQPGGSLRLSCAASGFTFSDYAMSWVRQAPGKGLEWVSAISGSGGSTYYAASVKGRFTISRDNSKNTLYLQMNSLRAEDTAVYYCARKYRPSRVFDAWGQGTLVTVSS VL: SYELTQPPSVSVAPGQTARITCSGDALGDKYASWYQQKPGQAPVLVIYEDAKRPWGIPERFSGSNSGNTATLTISGTQAEDEADYYCQSNDADAWWVFGGGTKLTVLG	0.703 relative to CM-1
CM-119 (antibody, human IgG4 S228P, lambda, V domains shown) VH: EVQLVESGGGLVQPGGSLRLSCAASGFTFSDYAMSWVRQAPGKGLEWVSAISGSGGSTYYAASVKGRFTISRDNSKNTLYLQMNSLRAEDTAVYYCARKYRPSRVFDYWGQGTLVTVSS VL: SYELTQPPSVSVAPGQTARITCSGDALGDKYASWYQQKPGQAPVLVIYEDAKRPSGIPERFSGSNSGNTATLTISGTQAEDEADYYCQSNDADAWWVFGGGTKLTVLG	1.37 relative to CM-1
CM-67 (antibody, human IgG4 S228P, lambda, V domains shown) VH: EVQLVESGGGLVQPGGSLRLSCAASGFTFSSHAMSWVRQAPGKGLEWVSAISGSGGSTYYAASVKGRFTISRDNSKNTLYLQMNSLRAEDTAVYYCARKFRPSRVFDAWGQGTLVTVSS VL: SYELTQPPSVSVAPGQTARITCSGDALGDKYASWYQQKPGQAPVLVIYEDARRPSGIPERFSGSNSGNTATLTISGTQAEDEADYYCQSNDADAVWVFGGGTKLTVLG	0.548 relative to CM-1
CM-68 (antibody, human IgG4 S228P, lambda, V domains shown) VH: EVQLVESGGGLVQPGGSLRLSCAASGFTFSSYAISWVRQAPGKGLEWVSAISGSGGSTYYAASVKGRFTISRDNSKNTLYLQMNSLRAEDTAVYYCARKYRPSRAFDAWGQGTLVTVSS VL: SYELTQPPSVSVAPGQTARITCSGDALGDKYASWYQQKPGQAPVLVIYEDAKRPSGIPERFSGSNSGNTATLTISGTQAEDEADYYCQSNDLDAVWVFGGGTKLTVLG	1.78 relative to CM-1
CM-113 (antibody, human IgG4 S228P, lambda, V domains shown) VH: EVQLVESGGGLVQPGGSLRLSCAASGFTFSSYAMSWVRQAPGKGLEWVSAISGSGGSHYYAASVKGRFTISRDNSKNTLYLQMNSLRAEDTAVYYCARKYRPSRVFDAWGQGTLVTVSS VL: SYELTQPPSVSVAPGQTARITCSGDALHDKYAAWYQQKPGQAPVLVIYEDAKRPSGIPERFSGSNSGNTATLTISGTQAEDEADYYCQSNDADAVWVFGGGTKLTVLG	0.442 relative to CM-1
CM-95 (antibody, human IgG4 S228P, lambda, V domains shown) VH: EVQLVESGGGLVQPGGSLRLSCAASGFTFSDYAMSWVRQAPGKGLEWVSAISGSGGSTYYAASVKGRFTISRDNSKNTLYLQMNSLRAEDTAVYYCARKYRPSRVFDAWGQGTLVTVSS VL: SYELTQPPSVSVAPGQTARITCSGDALGDKYASWYQQKPGQAPVLVIYEHHKRPSGIPERFSGSNSGNTATLTISGTQAEDEADYYCQSNDADAVWVFGGGTKLTVLG	1.11 relative to CM-1
CM-72 (antibody, human IgG4 S228P, lambda, V domains shown) VH: EVQLVESGGGLVQPGGSLRLSCAASGFTYSSYAMSWVRQAPGKGLEWVSAISGSGGSTYYAASVKGRFTISRDNSKNTLYLQMNSLRAEDTAVYYCARKYRPSRAFDAWGQGTLVTVSS VL: SYELTQPPSVSVAPGQTARITCSGDALGDKFASWYQQKPGQAPVLVIYEDAKRPSGIPERFSGSNSGNTATLTISGTQAEDEADYYCQSNDIDAVWVFGGGTKLTVLG	0.639 relative to CM-1
CM-88 (antibody, human IgG4 S228P, lambda, V domains shown) VH: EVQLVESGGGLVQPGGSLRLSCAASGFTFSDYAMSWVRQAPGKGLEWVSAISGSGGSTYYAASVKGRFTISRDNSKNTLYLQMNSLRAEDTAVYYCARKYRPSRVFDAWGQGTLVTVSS VL: SYELTQPPSVSVAPGQTARITCSGDALGDKYASWYQQKPGQAPVLVIYEDAKRPSGIPERFSGSNSGNTATLTISGTQAEDEADYYCQSNDADARWVFGGGTKLTVLG	1.01 relative to CM-1
CM-106 (antibody, human IgG4 S228P, lambda, V domains shown) VH: EVQLVESGGGLVQPGGSLRLSCAASGFTFSDYAMSWVRQAPGKGLEWVSAISGSGGSHYYAASVKGRFTISRDNSKNTLYLQMNSLRAEDTAVYYCARKYRPSRVFDAWGQGTLVTVSS VL: SYELTQPPSVSVAPGQTARITCSGDALHDKYASWYQQKPGQAPVLVIYEDAKRPSGIPERFSGSNSGNTATLTISGTQAEDEADYYCQSNDADAYWVFGGGTKLTVLG	0.352 relative to CM-1
